Test: qHTS profiling of inhibitors of Plasmodium falciparum (DD2) proliferation (acoustic dispense)
Details: P. falciparum Dd2 in erythrocytes, SYBR Green DNA, 72 h; at 49.8 µM (top of the series) unless noted
Consider the following molecules and their measured parasite growth, lower = inhibition readings.

# count of solved cases: 5
- molecule: "Cn1cc(C2=C(c3c4n(c5ccccc35)CCC(CN)C4)C(=O)NC2=O)c2ccccc21 (centres undefined)"
  parasite growth, lower = inhibition: "2.27%"
- molecule: "C[C@@H]1CCC2[C@@H](C)[C@@H](O)O[C@@H]3O[C@@]4(C)CC[C@@H]1[C@@]23OO4 (some centres undefined)"
  parasite growth, lower = inhibition: "-0.395%"
- molecule: "COC1=C2C[C@@H](C)C[C@H](OC)[C@@H](O)[C@@H](C)C=C(C)[C@H](OC(N)=O)[C@@H](OC)C=CC=C(C)C(=O)NC(=CC1=O)C2=O"
  parasite growth, lower = inhibition: "-0.39%"
- molecule: "CC(C)n1nc(-c2ccc3oc(N)nc3c2)c2c(N)ncnc21"
  parasite growth, lower = inhibition: "-0.0305%"
- molecule: "CC(=O)Nc1nc(C)c(-c2ccc(Cl)c(S(=O)(=O)NCCO)c2)s1"
  parasite growth, lower = inhibition: "-0.252%"

I am curious: what parasite growth, lower = inhibition value has been reported for COc1ncnc(NS(=O)(=O)c2ccc(N)cc2)c1OC ?
114%

Same question, O=C(Nc1ccc([N+](=O)[O-])cc1Cl)c1cc(Cl)ccc1O this time
87.9%

What about CN(C)c1ccc(C(=C2C=CC(=[N+](C)C)C=C2)c2ccc(N(C)C)cc2)cc1 ?
96.3%

# repeat for O=C1c2c(O)ccc(O)c2C(=O)c2c(NCCNCCO)ccc(NCCNCCO)c21
-3.56%
